test: Induction of hemolysis in sheep erythrocytes after 60 mins by spectrophotometer analysis; assay type: cell-based, Ovis aries, Erythrocyte; conditions: read-out: HD50
Non-standard residues stand in square brackets, D forms with d. Residues, ends and D or L forms follow the SMILES beside them. Groups on a side chain read outwards from the residue. *: point of attachment. Lys(α,ε-(ArgTrp)2) = N=C(N)NCCC[C@H](N)C(=O)N[C@@H](Cc1c[nH]c2ccccc12)C(=O)NCCCC[C@H](NC(=O)[C@H](Cc1c[nH]c2ccccc12)NC(=O)[C@@H](N)CCCNC(=N)N)C(=O)*; βAla = NCCC(=O)O

{"columns": ["MOLECULE", "HC50 at 1 h"],
 "data": [
  ["NCCCC[C@H](N)C(=O)N[C@@H](Cc1ccccc1)C(=O)NCCCC[C@H](NC(=O)[C@H](Cc1ccccc1)NC(=O)[C@@H](N)CCCCN)C(=O)NCCCC[C@H](NC(=O)[C@H](CCCCNC(=O)[C@H](Cc1ccccc1)NC(=O)[C@@H](N)CCCCN)NC(=O)[C@H](Cc1ccccc1)NC(=O)[C@@H](N)CCCCN)C(=O)NCCC(N)=O", "2500 µg/mL"],
  ["N=C(N)NCCC[C@H](N)C(=O)N[C@@H](Cc1c[nH]c2ccccc12)C(=O)NCCCC[C@H](NC(=O)[C@H](Cc1c[nH]c2ccccc12)NC(=O)[C@@H](N)CCCNC(=N)N)C(=O)NCCCC[C@H](NC(=O)[C@H](CCCCNC(=O)[C@H](Cc1c[nH]c2ccccc12)NC(=O)[C@@H](N)CCCNC(=N)N)NC(=O)[C@H](Cc1c[nH]c2ccccc12)NC(=O)[C@@H](N)CCCNC(=N)N)C(=O)NCCC(N)=O (H-RWK([Trp-Arg])K(Lys(α,ε-(ArgTrp)2))[βAla]-NH2)", "1960 µg/mL"],
  ["NC(=O)CCNC(=O)[C@H](CCCCNC(=O)[C@H](CCCCNC(=O)[C@H](Cc1c[nH]c2ccccc12)NC(=O)[C@@H](N)Cc1cnc[nH]1)NC(=O)[C@H](Cc1c[nH]c2ccccc12)NC(=O)[C@@H](N)Cc1cnc[nH]1)NC(=O)[C@H](CCCCNC(=O)[C@H](Cc1c[nH]c2ccccc12)NC(=O)[C@@H](N)Cc1cnc[nH]1)NC(=O)[C@H](Cc1c[nH]c2ccccc12)NC(=O)[C@@H](N)Cc1cnc[nH]1", "1860 µg/mL"]
]}
